# Test details: Displacement of protein A from human IgG antibody by competitive ELISA
Endpoint name: IC50 (µM)

Some compounds with recorded IC50:
Nc1ccc(CCn2cnc3c(Nc4cccc(N)c4)nc(NC4CCCC4)nc32)cc1 : 0.2
Nc1ccc(CCn2cnc3c(Nc4cccc(N)c4)nc(NCCCCCCO)nc32)cc1 : 4.8
Nc1cccc(Nc2ncnc3c2ncn3CCc2ccc(Cl)cc2)c1 : 3.6
Nc1cccc(Nc2ncnc3c2ncn3CCc2ccc3ccccc3c2)c1 : 12.5
Nc1ccc(Cn2cnc3c(Nc4cccc(N)c4)ncnc32)cc1 : 0.2
Nc1ccc(CCn2cnc3c(Nc4cccc(N)c4)nc(NC4CC4)nc32)cc1 : 13

A. Nc1cccc(Nc2ncnc3c2ncn3CCOc2ccc(F)cc2)c1
B. Nc1ccc(CCn2cnc3c(Nc4cccc(N)c4)nc(N)nc32)cc1
C. Nc1ccc(CCn2cnc3c(Nc4cccc(N)c4)nc(NC4CCCCC4)nc32)cc1
D. Nc1cccc(Nc2ncnc3c2ncn3CCOc2ccccc2)c1
E. Nc1ccc(CCn2cnc3c(Nc4cccc(N)c4)nc(NCCO)nc32)cc1
Ask | Order each entry by recorded IC50, climbing from the minimum. List the labels, following the order given in the request.
Reply | D, A, C, B, E
(D: 0.2 µM, A: 0.3 µM, C: 9 µM, B: 13 µM, E: 64 µM)

====

# Test details: Displacement of protein A from human IgG antibody by competitive ELISA
pIC50: −log10 of the molar value.
Endpoint name: pIC50

Some molecules with recorded pIC50:
CC(Nc1nc(Nc2cccc(N)c2)c2ncn(CCc3ccc(N)cc3)c2n1)c1cccc(N)c1 (stereo not given) : 4.85
Nc1cccc(Nc2ncnc3c2ncn3Cc2cccc(F)c2)c1 : 5.74
Nc1cccc(Nc2ncnc3c2ncn3CCCOc2ccccc2)c1 : 6.22

A. CC(C)CNc1nc(Nc2cccc(N)c2)c2ncn(CCc3ccc(N)cc3)c2n1
B. Nc1cccc(Nc2ncnc3c2ncn3Cc2cccc(Cl)c2)c1
Ask | # return whichever of A and B has the smaller pIC50 // return label of chosen record
Reply | A

====

# Test details: Displacement of protein A from human IgG antibody by competitive ELISA
Endpoint name: IC50 (nM)

Nc1ccc(CCn2cnc3c(Nc4cccc(N)c4)nc(NCC4CC4)nc32)cc1 : 600
Nc1cccc(Nc2ncnc3c2ncn3CC2CC2)c1 : 400
Nc1cccc(Nc2ncnc3c2ncn3Cc2ccc(Cl)cc2)c1 : 500
Cc1ccc(CCn2cnc3c(Nc4cccc(N)c4)ncnc32)cc1 : 1500
Nc1ccc(CCn2cnc3c(Nc4cccc(N)c4)ncnc32)cc1 : 1000

P. Nc1ccc(CCn2cnc3c(Nc4cccc(N)c4)nc(NC4CCC4)nc32)cc1
Q. CC(C)(C)CNc1nc(Nc2cccc(N)c2)c2ncn(CCc3ccc(N)cc3)c2n1
R. Nc1cccc(Nc2ncnc3c2ncn3CCc2cccc(F)c2)c1
Ask | Order each entry by recorded IC50, climbing from the minimum. List the labels, following the order given in the request.
Reply | R, P, Q

I. Nc1cccc(Nc2ncnc3c2ncn3CCc2ccccc2)c1
II. Nc1cccc(Nc2ncnc3c2ncn3CCc2ccc(F)cc2)c1
Ask | Which numeric IC50 is bigger, that of I or that of II ? // return label of chosen record
Reply | I
(I: 2300 nM, II: 600 nM)

====

# Test details: Displacement of protein A from human IgG antibody by competitive ELISA
pIC50: −log10 of the molar value.
Endpoint name: pIC50

Some molecules with recorded pIC50:
CC(c1cccc(F)c1)n1cnc2c(Nc3cccc(N)c3)ncnc21 (stereo unspecified) : 6.70
Nc1cccc(Nc2ncnc3c2ncn3Cc2ccc(F)cc2)c1 : 5.77

P. Nc1cccc(CCn2cnc3c(Nc4cccc(N)c4)ncnc32)c1
Q. CC(C)Nc1nc(Nc2cccc(N)c2)c2ncn(CCc3ccc(N)cc3)c2n1
R. COC(=O)c1ccc(Cn2cnc3c(Nc4cccc(N)c4)ncnc32)cc1
S. Nc1cccc(Nc2ncnc3c2ncn3CCOc2ccc(Cl)cc2)c1
Ask | Order each entry by recorded pIC50, climbing from the minimum. List the labels, following the order given in the request.
Reply | P, Q, S, R

Every entry's value here was drawn from ChEMBL document CHEMBL1139250.
